Tested on: Streptococcus suis
Assay: Antibacterial activity against Streptococcus suis BB1015 isolate after 24 hrs
Assay type: functional
property.name: MIC (µg/mL)
Answer in µg/mL, number only, no unit symbol.

[in] # lookup: MIC of O=C(O)c1cn(C2CC2)c2cc(N3CCNCC3)c(F)cc2c1=O
[out] 32

[in] Also check CCN1CCN(c2cc3c(cc2F)c(=O)c(C(=O)O)cn3C2CC2)CC1
[out] 16

[in] How about this molecule: C[C@H]1COc2c(N3CCN(C)CC3)c(F)cc3c(=O)c(C(=O)O)cn1c23.C[C@H]1COc2c(N3CCN(C)CC3)c(F)cc3c(=O)c(C(=O)O)cn1c23.O
[out] 16

----------
Consider the following compounds; for each one, report its MIC.
Test system: Streptococcus suis
Assay: Antibacterial activity against Streptococcus suis BB1007 isolate after 24 hrs
Type: functional
Just the number please, in µg/mL, no unit attached.

[in] I have this compound here, CCN1CCN(c2cc3c(cc2F)c(=O)c(C(=O)O)cn3C2CC2)CC1 , and I need its recorded MIC.
[out] 4

[in] Try C[C@H]1COc2c(N3CCN(C)CC3)c(F)cc3c(=O)c(C(=O)O)cn1c23.C[C@H]1COc2c(N3CCN(C)CC3)c(F)cc3c(=O)c(C(=O)O)cn1c23.O next.
[out] 2

[in] Entry to check: CCn1cc(C(=O)O)c(=O)c2cc(F)c(N3CCNCC3)cc21
[out] 16

----------
System: Streptococcus suis
Assay: Antibacterial activity against Streptococcus suis BB1009 isolate after 24 hrs
Type: functional
property.name: MIC (µg/mL)
Reply with just the number (in µg/mL).

[in] Name the recorded MIC for C[C@H]1COc2c(N3CCN(C)CC3)c(F)cc3c(=O)c(C(=O)O)cn1c23.C[C@H]1COc2c(N3CCN(C)CC3)c(F)cc3c(=O)c(C(=O)O)cn1c23.O [LEVOFLOXACIN] .
[out] 16

[in] Repeat with CCN1CCN(c2cc3c(cc2F)c(=O)c(C(=O)O)cn3C2CC2)CC1 [ENROFLOXACIN]
[out] 16

[in] Query O=C(O)c1cn(C2CC2)c2cc(N3CCNCC3)c(F)cc2c1=O [CIPROFLOXACIN] next
[out] 32

[in] Now the compound CCn1cc(C(=O)O)c(=O)c2cc(F)c(N3CCNCC3)cc21 [NORFLOXACIN]
[out] 32

# credit: ChEMBL document CHEMBL1142180
